Test system: porcine CYP3A
protocol_description: Inhibition of CYP3A activity (7-benzyloxy-4-trifluoromethylcoumarin O-dealkylation) in porcine hepatic microsomes
Type: in vitro ADME, pig
details: pig, liver microsomes, pH 7.4, probe 7-benzyloxy-4-trifluoromethylcoumarin (BFC); hepatic microsomes from male pigs; inhibitor 16, 32, 128 μM; BFC 0.1-150 μM
Procedure: Microsomes were prepared with a calcium aggregation method using Tris-EDTA homogenization buffer. Experiments were performed using pools of microsomes consisting of microsomes from two individual pigs. The total microsomal protein concentration was analyzed the same day using a commercially available kit (Bio-Rad Laboratories Inc., Hercules, CA, USA) according to the manufacturer's instructions. Microsomes were diluted to a protein concentration of 10 mg/mL and stored at −80°C until analysis. […]
parameter: Ki (µM)
Your answer is read as µM, so omit the unit and give the number.

Any idea what its Ki is? The compound is `O=c1c(O)c(-c2cc(O)c(O)c(O)c2)oc2cc(O)cc(O)c12`
113

---

subject_of_test: porcine CYP2E1 (Sus scrofa, UniProt P79383)
Sequence (P79383 whole entry): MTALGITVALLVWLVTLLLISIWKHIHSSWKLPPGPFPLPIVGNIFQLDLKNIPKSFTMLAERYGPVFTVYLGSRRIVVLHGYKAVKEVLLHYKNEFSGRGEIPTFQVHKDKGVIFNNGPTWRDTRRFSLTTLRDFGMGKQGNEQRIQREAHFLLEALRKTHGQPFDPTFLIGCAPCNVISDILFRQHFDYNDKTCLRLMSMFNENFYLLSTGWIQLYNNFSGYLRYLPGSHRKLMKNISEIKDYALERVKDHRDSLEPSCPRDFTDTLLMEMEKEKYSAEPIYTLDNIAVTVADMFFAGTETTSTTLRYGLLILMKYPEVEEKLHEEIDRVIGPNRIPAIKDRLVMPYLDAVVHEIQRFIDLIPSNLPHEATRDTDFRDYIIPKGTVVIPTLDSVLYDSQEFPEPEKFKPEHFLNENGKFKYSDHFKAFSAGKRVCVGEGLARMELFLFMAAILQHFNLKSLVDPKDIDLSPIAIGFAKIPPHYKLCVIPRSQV
protocol_description: Inhibition of CYP2E1 activity (p-nitrophenol hydroxylation) in porcine hepatic microsomes
Format: in vitro ADME, pig
details: 16 μM compound; hepatic microsomes from male and female pigs; 200 μM p-nitrophenol
parameter: effect on CYP2E1 activity

>  <structure_string>
O=c1c(O)c(-c2cc(O)c(O)c(O)c2)oc2cc(O)cc(O)c12

>  <subject_of_test>
porcine CYP2E1 (Sus scrofa, UniProt P79383)

>  <parameter>
effect on CYP2E1 activity

>  <reported_value>
did not affect

$$$$
>  <structure_string>
O=C(O)/C=C/c1ccc(O)cc1

>  <subject_of_test>
porcine CYP2E1 (Sus scrofa, UniProt P79383)

>  <parameter>
effect on CYP2E1 activity

>  <reported_value>
did not alter activity

$$$$
>  <structure_string>
C[C@@H]1O[C@@H](OC[C@H]2O[C@@H](Oc3c(-c4ccc(O)c(O)c4)oc4cc(O)cc(O)c4c3=O)[C@H](O)[C@@H](O)[C@@H]2O)[C@H](O)[C@H](O)[C@H]1O

>  <subject_of_test>
porcine CYP2E1 (Sus scrofa, UniProt P79383)

>  <parameter>
effect on CYP2E1 activity

>  <reported_value>
did not alter activity

$$$$
>  <structure_string>
O=C(O)/C=C/c1ccc(O)c(O)c1

>  <subject_of_test>
porcine CYP2E1 (Sus scrofa, UniProt P79383)

>  <parameter>
effect on CYP2E1 activity

>  <reported_value>
did not alter activity

$$$$
>  <structure_string>
COc1cc(-c2oc3cc(O)cc(O)c3c(=O)c2O)ccc1O

>  <subject_of_test>
porcine CYP2E1 (Sus scrofa, UniProt P79383)

>  <parameter>
effect on CYP2E1 activity

>  <reported_value>
did not affect

$$$$

API: value(readout= effect on CYP2E1 activity, system= porcine CYP2E1 (Sus scrofa, UniProt P79383), query= `O=C(O)c1cc(O)c(O)c(O)c1` )
did not alter activity

---

System: porcine CYP3A
protocol_description: Inhibition of CYP3A activity (7-benzyloxy-4-trifluoromethylcoumarin O-dealkylation) in porcine hepatic microsomes
Assay type: in vitro ADME, pig
details: pig, pH 7.4; hepatic microsomes from female pigs; inhibitor 16, 32, 128 μM; BFC 0.1-150 μM
parameter: pKi
Interpret pKi as the negative base-10 log of the concentration measured in mol/L.

So what does the record say about pKi for COc1cc(-c2oc3cc(O)cc(O)c3c(=O)c2O)ccc1O [isorhamnetin] ?
4.03

---

Test system: porcine CYP2A
details: 16 μM compound; hepatic microsomes from male and female pigs; 200 μM coumarin
parameter: effect on CYP2A activity

Example results:
>  <structure_string>
COc1cc(-c2oc3cc(O)cc(O)c3c(=O)c2O)ccc1O

>  <subject_of_test>
porcine CYP2A

>  <reported_value>
did not affect

$$$$
>  <structure_string>
C[C@@H]1O[C@@H](OC[C@H]2O[C@@H](Oc3c(-c4ccc(O)c(O)c4)oc4cc(O)cc(O)c4c3=O)[C@H](O)[C@@H](O)[C@@H]2O)[C@H](O)[C@H](O)[C@H]1O

>  <subject_of_test>
porcine CYP2A

>  <reported_value>
did not alter activity

$$$$
>  <structure_string>
O=C(O)/C=C/c1ccc(O)c(O)c1

>  <subject_of_test>
porcine CYP2A

>  <reported_value>
did not alter activity

$$$$
>  <structure_string>
O=c1c(O)c(-c2cc(O)c(O)c(O)c2)oc2cc(O)cc(O)c12

>  <subject_of_test>
porcine CYP2A

>  <reported_value>
did not affect

$$$$

State its effect on CYP2A activity on porcine CYP2A: `O=C(O)/C=C/c1ccc(O)cc1`
did not alter activity

---

parameter: pKi
Scale: pKi equals -log10([C]), with [C] in mol/L.

Value wanted: pKi (porcine CYP2E1 (Sus scrofa)) of entry O=c1c(O)c(-c2ccc(O)c(O)c2)oc2cc(O)cc(O)c12 [quercetin]
4.03

---

System: porcine CYP1A
protocol_description: Inhibition of CYP1A activity (7-ethoxyresorufin O-deethylation) in porcine hepatic microsomes
Type: in vitro ADME, pig
details: pig, liver microsomes, pH 7.4, probe 7-ethoxyresorufin (0.1-4 μM; O-deethylation); hepatic microsomes from male pigs; inhibitor 16, 32, 128 μM; 7-ethoxyresorufin 0.1-4 μM
parameter: pKi
Entry type: numeric. Quantity: pKi, the -log10 of concentration in molar units.

What value of measured pKi is listed for `O=c1c(O)c(-c2ccc(O)c(O)c2)oc2cc(O)cc(O)c12` ?
6.80
